Test system: NCI-H23 lung
Experiment: NCI tumour cell line growth inhibition, 48 h; in the data active = GI50 below about 0.43 µM; inactive = the rest
Outcome codes: active, inactive

| compound | discrete.label |
| --- | --- |
| Nc1ccccc1NC(=O)c1ccc(CSc2nc(N3CCOCC3)c3cccn3n2)cc1 | inactive |
| C#C[C@@]1(O)[C@@H](CO)O[C@@H](n2cc(Cl)c3c(N)ncnc32)[C@@H]1O | active |
| O=c1oc2ccc(Cl)cc2c(=O)n1-c1ccc(Cl)cc1F | active |
| COC(=O)c1cccc(NC(=O)Nc2ccc3oc(=O)c4ccccc4c3c2)c1 | inactive |
| C[C@H]1CCC/C=C/[C@@H]2C[C@H](O)C[C@H]2[C@H](O)[C@H](S(=O)c2ccc(O)cc2)CC(=O)O1 (some centres not stated) | active |
| CCCCCCN(CCCCCC)C(=N)c1ccnc2ccccc12 | inactive |
| COc1ccc(-c2cc(-c3ccc(Nc4nc(Nc5ccc(Cl)cc5)nc(Nc5ccc(Cl)cc5)n4)cc3)no2)cc1 | inactive |
| CS(=O)(=O)CCNCc1ccc(-c2ccc3ncnc(Nc4ccc(OCc5ccccc5)c(C(F)(F)F)c4)c3c2)o1 | inactive |
| CC(C)(Cl)CCC1=C(Cl)C(=O)c2ccccc2C1=O | inactive |
| CN(C)CC/C=C1\c2ccccc2Sc2ccc(Cl)cc21 | inactive |
| COc1ccc(C(=O)/C=C/c2cc3ccccc3[nH]c2=O)cc1 | inactive |
| COc1ccc(C(=S)c2cc(OC)c(OC)c(OC)c2)cc1OC(=O)CCl | active |

---

System: SK-OV-3 ovarian
Assay: NCI tumour cell line growth inhibition, 48 h
readout.name: GI50

| compound | result |
| --- | --- |
| CCCCCCCCN(CCCCCCCC)C(=N)c1ccnc2ccccc12 | 1610 nM |
| O=S(=O)(NCCNc1cc(-c2cn(-c3ccccc3)nc2-c2cccc(O)c2)ccn1)c1ccc(C(F)(F)F)cc1 | 3790 nM |
| CC(=O)[CH-]C(=O)c1ccccc1.CC(=O)[CH-]C(=O)c1ccccc1.O=C([O-])C[O-].O=C([O-])C[O-].[Ti+4] | 35800 nM |
| CS(=O)(=O)CCNCc1ccc(-c2ccc3ncnc(Nc4ccc(OCc5ccccc5)c(C(F)(F)F)c4)c3c2)o1 | 7190 nM |
| COc1ccc(OC)c(/C=C/c2nnc(Nc3ccc(Cl)cc3)o2)c1 | 2790 nM |
| CCCCCCCCCCCCCOC(=O)c1c(C)[nH]c(/C=C2\N=C(c3ccc[nH]3)C=C2OC)c1C | 2800 nM |
| C/C(=C\c1ccn(-c2ccc(N)c(C(F)(F)F)c2)n1)[C@@H]1C[C@@H]2O[C@]2(C)CCC[C@H](C)[C@H](O)[C@@H](C)C(=O)C(C)(C)[C@@H](O)CC(=O)O1 | 103 nM |
| Cc1ccc(-c2csc(N(C(=O)N3CCN(c4cc5c(cc4F)c(=O)c(C(=O)O)cn5C4CC4)CC3)c3ccccc3)n2)cc1 | 252 nM |
| COc1ccc(-c2cc(-c3ccc(Nc4nc(Nc5ccc(Cl)cc5)nc(Nc5ccc(Cl)cc5)n4)cc3)no2)cc1 | 25800 nM |
| COc1ccc(-c2coc3ncnc(N)c23)cc1 | > 25000 nM |
| CS(=O)(=O)c1ccc(N/N=C/c2c(-c3ccc(S(C)(=O)=O)cc3)[nH]c3ccc(F)cc23)cc1 | 3270 nM |
| CCCCCCN(CCCCCC)C(=N)c1ccnc2ccccc12 | 12300 nM |
| COc1cc(N2CCC(N3CCN(C)CC3)CC2)ccc1Nc1ncc(Cl)c(Nc2ccccc2P(C)(C)=O)n1 | 992 nM |
| COc1cccc(-c2nn(-c3ccccc3)cc2-c2ccnc(NCCNS(=O)(=O)c3ccc(C(F)(F)F)cc3)c2)c1 | 3000 nM |
| C[C@H]1CCC/C=C/[C@@H]2C[C@H](O)C[C@H]2[C@H](O)[C@H](S(=O)c2ccc(O)cc2)CC(=O)O1 (stereo not given in full) | < 20.5 nM |

---

Tested on: KM12 colon
Experiment: NCI tumour cell line growth inhibition, 48 h
readout.name: TGI

| compound | result |
| --- | --- |
| O=C(O)C(Cc1ccc(O)cn1)NC(=O)C(F)(F)F (centres undefined) | > 100 µM |
| COC(=O)[C@@H]1O[C@]12C(CO[Si](C)(C)C(C)(C)C)OC(n1ccc(=O)[nH]c1=O)C2O[Si](C)(C)C(C)(C)C (some centres undefined) | 77.9 µM |
| COC(=O)C1=CC(O)CCC1c1ccc(OC)cc1 (centres undefined) | > 100 µM |
| OCCN1CCN(CCO)Cc2ccccc2OCCOc2ccccc2C1 | > 100 µM |
| O=C1c2ccccc2C(=O)N1/N=C\c1ccc(Br)cc1 | > 100 µM |
| Cc1cc(Cl)ccc1Nc1sc(C(=O)c2cc3cc(Cl)ccc3o2)c(N)c1C#N | > 100 µM |
| CCOC(=O)Cn1c(=O)c2nc(SC)sc2n(-c2ccc(C)cc2)c1=S | > 100 µM |
| Cc1cc(N(CCOS(C)(=O)=O)CCOS(C)(=O)=O)ccc1C=Nc1ccc(-c2csc(-c3ccccc3)n2)c(Cl)c1 | 27.2 µM |
| CCc1ccccc1NC(=O)/C(CC(=O)c1c(C)n([O-])c2ccccc2[n+]1=O)=N\NS(=O)(=O)c1ccc(C)cc1 | > 100 µM |

---

Test system: UACC-257 melanoma
Test: NCI tumour cell line growth inhibition, 48 h

| compound | GI50 |
| --- | --- |
| Nc1ccccc1NC(=O)c1ccc(CSc2nc(N3CCOCC3)c3cccn3n2)cc1 | 0.549 µM |
| CN1CCN(C(=O)c2ccc(NC(=O)Nc3ccc(N(C)c4ccnc(Nc5ccc(CS(C)(=O)=O)cc5)n4)cc3)cc2)CC1 | > 25 µM |
| CCC[CH2][Sn]1([CH2]CCC)[O]C(c2ccccn2)S(=O)(=O)[O]1 (stereo not drawn) | 1.79 µM |

---

System: UACC-257 melanoma
Assay: NCI tumour cell line growth inhibition, 48 h
A collection of molecules and their measured TGI

| molecule | experimental.system | TGI |
| --- | --- | --- |
| O=[N+]([O-])C(/C(Cl)=C(/Cl)N1CCCCC1)=C1\NCCO1 | UACC-257 melanoma | > 100 µM |
| c1ccc(COCC23CCN(Cc4ccccc4)C(CC(OCc4ccccc4)C2)S3)cc1 (stereo not given) | UACC-257 melanoma | > 100 µM |
| O=C1C(=O)c2cc([N+](=O)[O-])ccc2-c2ccccc21 | UACC-257 melanoma | 3.13 µM |
| Cc1c(O)c(OC2OC(CO)C(O)C(O)C2O)cc2c1CC[C@@H]1C2(C)C(=O)C[C@]2(C)[C@@H]([C@@](C)(O)C(O)/C=C/C(C)(C)O)[C@H](O)C[C@@]12C (stereo not given in full) | UACC-257 melanoma | > 100 µM |
| CCOC(=O)c1ccc2c(c1)nc1n2C(c2c(F)cccc2F)SC1 (stereo not given) | UACC-257 melanoma | > 100 µM |
| CCCCCCCCCCCCCOC(=O)c1c(C)[nH]c(/C=C2\N=C(c3ccc[nH]3)C=C2OC)c1C | UACC-257 melanoma | > 100 µM |
| CC(=O)CC(=O)N(CCN(C(=O)CC(C)=O)c1ccccc1)c1ccccc1 | UACC-257 melanoma | > 100 µM |
| O=C(O)C(Cc1cccs1)NC(=O)C(F)(F)F (stereo not given) | UACC-257 melanoma | > 100 µM |
| Cc1ccc(SCC(OCn2cnc3c(N)ncnc32)[C@H](C)F)cc1 (stereo not given in full) | UACC-257 melanoma | > 100 µM |
| CC1=CC2=C(OCO1)C(=O)c1ccccc1C2=O | UACC-257 melanoma | 7.29 µM |

---

Test system: NCI-H226 lung
Test: NCI tumour cell line growth inhibition, 48 h
readout.name: TGI

| compound | result |
| --- | --- |
| CCOC(=O)Cn1c(=O)c2nc(SC)sc2n(-c2ccc(C)cc2)c1=S | 69.6 µM |
| CC(=O)N1NC(c2ccccc2)=CC(=O)/C1=C/C(=O)c1ccccc1 | > 100 µM |
| N#Cc1c(C#N)c(-c2cccc([N+](=O)[O-])c2)n(-c2ccccc2)c1N | 86.1 µM |
| CN1C(=O)n2c(nc3ccccc32)C(N=[N+]=[N-])(N=[N+]=[N-])C1=O (stereo not given) | > 100 µM |
| COc1ccc(-c2cc(-c3ccc(Nc4nc(Nc5ccc(Cl)cc5)nc(Nc5ccc(Cl)cc5)n4)cc3)no2)cc1 | 49.2 µM |
| CC(=O)c1ccc(-c2oc(-c3ccccc3)cc2-c2ccc3c(c2)OCO3)s1 | > 100 µM |
| CC[O-].CC[O-].[O-]c1ccccc1C=Nc1ccccc1.[O-]c1ccccc1C=Nc1ccccc1.[Ti+4] | > 100 µM |
| CCCCCCCC/C=C\CCCCCCCCNc1ccn(C2OC(COP(=O)(O)OC3CC(n4cc(F)c(=O)[nH]c4=O)OC3CO)C(O)C2O)c(=O)n1 (stereo not given) | > 100 µM |
| CN(C)CCOc1cc2c(c3ccccc13)-c1ccccc1C2=O | 5.69 µM |
| CC[C@H](C)c1occ2c(O)c(C(=O)O)c(=O)cc-2c1C | > 100 µM |
| [N-]=[N+]=NC1(N=[N+]=[N-])C(=O)NN=C(c2ccccc2)C1=O (stereo not given) | > 100 µM |
| COC(=O)C1=CC(O)CCC1c1ccc(OC)cc1 (stereo not given) | > 100 µM |
| CCOC(=O)C1C(=O)CC(C)(O)C(C(=O)OCC)C1c1ccc(N(C)C)cc1 (stereo not given) | > 100 µM |
| CC1CC(N)=Nc2ccccc2N1Cc1ccccc1 (stereo not given) | 30.9 µM |
| CN(C)c1ccc(N=Nc2cccc3ccoc23)cc1 | > 100 µM |
| C[C@]12CCC3c4ccc(OC(=O)c5ccccc5)cc4CC[C@H]3C1CC[C@@H]2OC(=O)C12OC1CCC2=O (stereo not given in full) | 34.5 µM |
| O=C(O)C1C2C=CC(O2)C1C(=O)Nc1ccccc1 (stereo not given) | > 100 µM |
| CCOC(=O)CSc1nc2ccccc2c(=O)n1N | > 100 µM |
| O=c1oc2ccc(Cl)cc2c(=O)n1-c1ccc(Cl)cc1F | 3.3 µM |
| CCc1ccccc1NC(=O)/C(CC(=O)c1c(C)n([O-])c2ccccc2[n+]1=O)=N\NS(=O)(=O)c1ccc(C)cc1 | > 100 µM |
